test system: Escherichia coli; test: Antibacterial activity against Escherichia coli isolate 12-1; type: functional
Below, each entry is listed with its recorded log10(MIC).
On a log10 scale: recorded MIC, unit µg/mL.

Look over these answered cases.
[[record]]
molecule = "O=C1NC2CCN(c3nc4c(cc3F)c(=O)c(C(=O)O)cn4C3CC3)CC2O1 (centres undefined)"
outcome_measure = "log10(MIC)"
measured = 1.20

[[record]]
molecule = "CO/N=C1\\CN(c2c(F)cc3c(=O)c(C(=O)O)cn4c3c2OC[C@@H]4C)CCC1N (some centres undefined)"
outcome_measure = "log10(MIC)"
measured = 0.60

[[record]]
molecule = "CCO/N=C1\\CN(c2c(F)cc3c(=O)c(C(=O)O)cn(C4CC4)c3c2F)CCC1NC (centres undefined)"
outcome_measure = "log10(MIC)"
measured = 0.90

[[record]]
molecule = "CNC1CCN(c2ccc3c(=O)c(C(=O)O)cn(C4CC4)c3n2)C/C1=N\\OC (centres undefined)"
outcome_measure = "log10(MIC)"
measured = 1.81

[[record]]
molecule = "CO/N=C1\\CN(c2nc3c(cc2F)c(=O)c(C(=O)O)cn3C2CC2)CC1CN (centres undefined) [GEMIFLOXACIN]"
outcome_measure = "log10(MIC)"
measured = -0.90

[[record]]
molecule = "CCO/N=C1\\CN(c2c(F)cc3c(=O)c(C(=O)O)cn(C4CC4)c3c2OC)CCC1NC (centres undefined)"
outcome_measure = "log10(MIC)"
measured = 0.90


**Query** Name the recorded log10(MIC) of CCn1cc(C(=O)O)c(=O)c2cc(F)c(N3CCC(NC)/C(=N/OC)C3)c(F)c21 (centres undefined) , assay system Escherichia coli.
**Result** 0.90

**Query** Name the recorded log10(MIC) of CNC1CCN(c2c(F)cc3c(=O)c(C(=O)O)cn4c3c2OC[C@@H]4C)C/C1=N\OC (some centres undefined) , assay system Escherichia coli.
**Result** 0.90

**Query** Name the recorded log10(MIC) of CO/N=C1\CN(c2nc3c(cc2F)c(=O)c(C(=O)O)cn3C2CC2)CCC1N (centres undefined) , assay system Escherichia coli.
**Result** 0.30

###

tested on: Klebsiella pneumoniae; experiment: Antibacterial activity against Klebsiella pneumoniae isolate 12-2; type: functional
In plain terms, low MIC, meaning strictly below 2 µg/mL, gives satisfied, and everything else gives not satisfied.

Below are worked cases with known answers.
[[record]]
molecule = "CO/N=C1\\CN(c2nc3c(cc2F)c(=O)c(C(=O)O)cn3C2CC2)CCC1N (centres undefined)"
category = "satisfied"

[[record]]
molecule = "O=C(O)c1cn(C2CC2)c2cc(N3CCNCC3)c(F)cc2c1=O [CIPROFLOXACIN]"
category = "satisfied"

[[record]]
molecule = "CCO/N=C1\\CN(c2c(F)cc3c(=O)c(C(=O)O)cn(C4CC4)c3c2F)CCC1NC (centres undefined)"
category = "satisfied"


**Query** I'd appreciate it if you could check whether CNC1CCN(c2c(F)cc3c(=O)c(C(=O)O)cn(C4CC4)c3c2F)C/C1=N\OC (centres undefined) has MIC smaller than 2 µg/mL.
**Result** satisfied

**Query** I'd appreciate it if you could check whether CCO/N=C1\CN(c2c(F)cc3c(=O)c(C(=O)O)cn(C4CC4)c3c2OC)CCC1NC (centres undefined) has MIC smaller than 2 µg/mL.
**Result** not satisfied

**Query** I'd appreciate it if you could check whether CCO/N=C1\CN(c2c(F)cc3c(=O)c(C(=O)O)cn4c3c2OC[C@@H]4C)CCC1NC (some centres undefined) has MIC smaller than 2 µg/mL.
**Result** satisfied

**Query** I'd appreciate it if you could check whether CCn1cc(C(=O)O)c(=O)c2cc(F)c(N3CCC(NC)/C(=N/OC)C3)c(F)c21 (centres undefined) has MIC smaller than 2 µg/mL.
**Result** not satisfied

###

Below, each entry is listed with its recorded MIC.
test system: Klebsiella pneumoniae; experiment: Antibacterial activity against Klebsiella pneumoniae isolate 12-1; format: functional
Answer shape: numeric part, then the unit.

[[record]]
compound = "CNC1CCN(c2nc3c(cc2F)c(=O)c(C(=O)O)cn3C2CC2)C/C1=N\\OC (stereo not given)"
study_system = "Klebsiella pneumoniae"
measured = "0.5 µg/mL"


From here, focus on the item given below.
**Query** Specify MIC for CNC1CCN(c2nc3c(cc2F)c(=O)c(C(=O)O)cn3-c2ccc(F)cc2F)C/C1=N\OC (stereo not given) and stop.
**Result** 1 µg/mL

###

test system: Klebsiella pneumoniae; experiment: Antibacterial activity against Klebsiella pneumoniae isolate 12-1; format: functional
Below, each entry is listed with its recorded MIC.
Answer shape: numeric part, then the unit.

[[record]]
molecule = "CO/N=C1\\CN(c2c(F)cc3c(=O)c(C(=O)O)cn4c3c2OC[C@@H]4C)CCC1N (stereo partly drawn)"
measured = "8 µg/mL"

[[record]]
molecule = "CO/N=C1\\CN(c2nc3c(cc2F)c(=O)c(C(=O)O)cn3C2CC2)CCC1N (stereo not drawn)"
measured = "0.25 µg/mL"


**Query** Specify MIC for C[C@H]1COc2c(N3CCN(C)CC3)c(F)cc3c(=O)c(C(=O)O)cn1c23.C[C@H]1COc2c(N3CCN(C)CC3)c(F)cc3c(=O)c(C(=O)O)cn1c23.O and stop.
**Result** 0.06 µg/mL

**Query** Specify MIC for CCn1cc(C(=O)O)c(=O)c2cc(F)c(N3CCC(NC)/C(=N/OC)C3)c(F)c21 (stereo not drawn) and stop.
**Result** 4 µg/mL

**Query** Specify MIC for CNC1CCN(c2ccc3c(=O)c(C(=O)O)cn(C4CC4)c3n2)C/C1=N\OC (stereo not drawn) and stop.
**Result** 2 µg/mL

**Query** Specify MIC for CCO/N=C1\CN(c2c(F)cc3c(=O)c(C(=O)O)cn4c3c2OC[C@@H]4C)CCC1NC (stereo partly drawn) and stop.
**Result** 2 µg/mL

**Query** Specify MIC for CNC1CCN(c2c(F)cc3c(=O)c(C(=O)O)cn(C4CC4)c3c2F)C/C1=N\OC (stereo not drawn) and stop.
**Result** 0.5 µg/mL

**Query** Specify MIC for CCO/N=C1\CN(c2nc3c(cc2F)c(=O)c(C(=O)O)cn3C2CC2)CCC1NC (stereo not drawn) and stop.
**Result** 4 µg/mL

###

Below, each entry is listed with its recorded MIC.
test system: Pseudomonas aeruginosa; experiment: Antibacterial activity against Pseudomonas aeruginosa isolate 12-2; type: functional
Give your result in µg/mL as a bare value.

Look over these answered cases.
[[record]]
compound = "CCO/N=C1\\CN(c2c(F)cc3c(=O)c(C(=O)O)cn(C4CC4)c3c2OC)CCC1NC (stereo not drawn)"
measured = 16

[[record]]
compound = "O=C(O)c1cn(C2CC2)c2cc(N3CCNCC3)c(F)cc2c1=O"
measured = 16

[[record]]
compound = "CNC1CCN(c2c(F)cc3c(=O)c(C(=O)O)cn4c3c2OC[C@@H]4C)C/C1=N\\OC (stereo partly drawn)"
measured = 8

[[record]]
compound = "CCO/N=C1\\CN(c2c(F)cc3c(=O)c(C(=O)O)cn(C4CC4)c3c2F)CCC1NC (stereo not drawn)"
measured = 16

[[record]]
compound = "CO/N=C1\\CN(c2c(F)cc3c(=O)c(C(=O)O)cn(C4CC4)c3c2OC)CCC1N (stereo not drawn)"
measured = 16

[[record]]
compound = "CNC1CCN(c2nc3c(cc2F)c(=O)c(C(=O)O)cn3-c2ccc(F)cc2F)C/C1=N\\OC (stereo not drawn)"
measured = 8

[[record]]
compound = "CO/N=C1\\CN(c2c(F)cc3c(=O)c(C(=O)O)cn4c3c2OC[C@@H]4C)CCC1N (stereo partly drawn)"
measured = 16

[[record]]
compound = "CCO/N=C1\\CN(c2nc3c(cc2F)c(=O)c(C(=O)O)cn3C2CC2)CCC1NC (stereo not drawn)"
measured = 128


**Query** Specify MIC for CNC1CCN(c2nc3c(cc2F)c(=O)c(C(=O)O)cn3C2CC2)C/C1=N\OC (stereo not drawn) and stop.
**Result** 16

**Query** Specify MIC for O=C1NC2CCN(c3nc4c(cc3F)c(=O)c(C(=O)O)cn4C3CC3)CC2O1 (stereo not drawn) and stop.
**Result** 16

**Query** Specify MIC for CNC1CCN(c2c(F)cc3c(=O)c(C(=O)O)cn(C4CC4)c3c2OC)C/C1=N\OC (stereo not drawn) and stop.
**Result** 16

**Query** Specify MIC for C[C@H]1COc2c(N3CCN(C)CC3)c(F)cc3c(=O)c(C(=O)O)cn1c23.C[C@H]1COc2c(N3CCN(C)CC3)c(F)cc3c(=O)c(C(=O)O)cn1c23.O and stop.
**Result** 16

**Query** Specify MIC for CO/N=C1\CN(c2nc3c(cc2F)c(=O)c(C(=O)O)cn3C2CC2)CCC1N (stereo not drawn) and stop.
**Result** 8

**Query** Specify MIC for CCn1cc(C(=O)O)c(=O)c2cc(F)c(N3CCC(NC)/C(=N/OC)C3)c(F)c21 (stereo not drawn) and stop.
**Result** 8

**Query** Specify MIC for CCO/N=C1\CN(c2c(F)cc3c(=O)c(C(=O)O)cn4c3c2OC[C@@H]4C)CCC1NC (stereo partly drawn) and stop.
**Result** 8

**Query** Specify MIC for CO/N=C1\CN(c2nc3c(cc2F)c(=O)c(C(=O)O)cn3C2CC2)CC1CN (stereo not drawn) and stop.
**Result** 16

**Query** Specify MIC for CNC1CCN(c2c(F)cc3c(=O)c(C(=O)O)cn(C4CC4)c3c2F)C/C1=N\OC (stereo not drawn) and stop.
**Result** 8

**Query** Specify MIC for CNC1CCN(c2ccc3c(=O)c(C(=O)O)cn(C4CC4)c3n2)C/C1=N\OC (stereo not drawn) and stop.
**Result** 8

Source of measurements: ChEMBL document CHEMBL2331542
